- Tested on: Mycobacterium tuberculosis
- Protocol Details: Cornell - Phenotypic assay to identify agents that inhibit growth of Mycobacterium tuberculosis
- Type: functional
- Set-up: scale not given: direction of the effect not stated beside the values
- Condition Parameters: 10 mM as filed; unlikely as a test dose
The campaign covered roughly 53,000 compounds. About 900 (1.7%) showed an effect of 50% or more. For the sample, strong results were picked, then their nearest neighbours and some compounds at random.
Measurement Type: Percent Effect (%)
Only the number, expressed in %, is required.

Specify Percent Effect for Cc1cc(C)nc(C2CCCN2C(=O)c2cnccn2)n1 (stereo not drawn) and stop.
-1.129

Specify Percent Effect for COc1cc(NCc2cccnc2)c(-c2nn[nH]n2)cc1OC and stop.
-25.93

Specify Percent Effect for COc1cc(CNc2ccc(Cl)cc2)ccc1OCC(=O)O and stop.
-3.069

Specify Percent Effect for OCc1ccc(Cl)c(NCc2cccnc2)c1 and stop.
-14.09

Specify Percent Effect for Cc1cn2c(n1)CCC(NC(=O)CNS(C)(=O)=O)C2 (stereo not drawn) and stop.
-12.28

Specify Percent Effect for Cc1noc(Cl)c1CC(=O)N1CCCC1Cn1cccn1 (stereo not drawn) and stop.
17.08

Specify Percent Effect for Cc1n[nH]c(C)c1S(=O)(=O)N1CCC(Oc2cnccn2)CC1 and stop.
6.999

Specify Percent Effect for CCc1ccc(C(=O)N2CCC(Nc3ccc(C)nn3)CC2)o1 and stop.
29.19

* * *

- System: Mycobacterium tuberculosis
- Protocol Details: Cornell - Phenotypic assay to identify agents that inhibit growth of Mycobacterium tuberculosis
- Assay type: functional
- Design: scale not given: direction of the effect not stated beside the values
- Condition Parameters: 10 mM as filed; unlikely as a test dose
The whole screen tested about 53,000 compounds, of which about 900 (1.7%) showed an effect of 50% or more. Only a selection was taken, and strong results are over-represented in it overall.
Mark each entry Condition met if its Percent Effect sits below 10%, and Condition not met for all others.

Say whether its Percent Effect is strictly beneath 10%. Entry: c1cnc(Nc2ccc(C3CCCCN3Cc3ccncc3)cn2)nc1 (stereo not given)
Condition not met

Say whether its Percent Effect is strictly beneath 10%. Entry: N#Cc1ncn(CC(=O)Nc2cc(Cl)ccc2F)n1
Condition not met

Say whether its Percent Effect is strictly beneath 10%. Entry: COc1cccc(CN2CCC(c3nn(CCN)c4nccnc34)C2)c1 (stereo not given)
Condition met

Say whether its Percent Effect is strictly beneath 10%. Entry: Cn1cc(S(=O)(=O)NCC(C)(O)c2ccsc2)cn1 (stereo not given)
Condition met

Say whether its Percent Effect is strictly beneath 10%. Entry: COc1cccc(CN2CCN(c3noc(C(C)C)n3)CC2)c1F
Condition not met

Say whether its Percent Effect is strictly beneath 10%. Entry: COCC(=O)NCc1cc(=O)n2c(n1)CN(Cc1ccccc1)CCC2.O=C(O)C(F)(F)F
Condition met

Say whether its Percent Effect is strictly beneath 10%. Entry: C1CC(CN2C[C@@H]3C[C@@H](c4nnc(C5CC5)o4)O[C@@H]3C2)C1
Condition met

Say whether its Percent Effect is strictly beneath 10%. Entry: CC(Nc1ncnc2c1CCNC2)c1ccc(C(C)(C)C)cc1 (stereo not given)
Condition not met

Say whether its Percent Effect is strictly beneath 10%. Entry: O=C(NCc1ccccc1Cn1cncn1)C1CCCC1
Condition met

Say whether its Percent Effect is strictly beneath 10%. Entry: COCc1nn(Cc2ccc(Br)s2)c(=O)o1
Condition met

Say whether its Percent Effect is strictly beneath 10%. Entry: Cc1ccc(-c2nnc(CN3CCN(c4ccccn4)CC3)o2)cc1
Condition met

Say whether its Percent Effect is strictly beneath 10%. Entry: N#Cc1ncn(CCC(=O)Nc2c(Cl)cccc2Cl)n1
Condition not met

Say whether its Percent Effect is strictly beneath 10%. Entry: N#Cc1ncn(CCC(=O)Nc2ccc(F)c(F)c2)n1
Condition not met

Say whether its Percent Effect is strictly beneath 10%. Entry: COc1ccc(CNC(=O)CNc2cc3c(cc2Cl)OCCCO3)cc1
Condition not met

Say whether its Percent Effect is strictly beneath 10%. Entry: CCc1cc(NCc2ccccc2CN2CCCC2)n2ncnc2n1
Condition met

Say whether its Percent Effect is strictly beneath 10%. Entry: CCOc1ccc(C(C)Nc2ncnc3c2CCNC3)cc1OCC (stereo not given)
Condition not met

Say whether its Percent Effect is strictly beneath 10%. Entry: c1cncc(CN2CCCCC2c2ccc(Nc3cnccn3)nc2)c1 (stereo not given)
Condition not met

Say whether its Percent Effect is strictly beneath 10%. Entry: N#Cc1ncn(CCC(=O)Nc2cc(Cl)ccc2Cl)n1
Condition not met

Say whether its Percent Effect is strictly beneath 10%. Entry: CC(C)C(=O)N1CCN(C(=O)c2cc(C(C)C)no2)[C@H]2CS(=O)(=O)C[C@H]21
Condition not met

Say whether its Percent Effect is strictly beneath 10%. Entry: O=C(CCc1cccs1)N1CCCC1c1noc(C2CC2)n1 (stereo not given)
Condition met

Say whether its Percent Effect is strictly beneath 10%. Entry: CNC(=O)c1cnn2c(C3CCCN3)ccnc12 (stereo not given)
Condition met

Say whether its Percent Effect is strictly beneath 10%. Entry: COC(=O)c1ccc(Cn2cnc(C#N)n2)cc1
Condition not met

Say whether its Percent Effect is strictly beneath 10%. Entry: CCOCC(=O)NCCc1nc(C)cc(C(F)(F)F)n1
Condition met

Say whether its Percent Effect is strictly beneath 10%. Entry: c1cc(CN2CCCCC2c2ccc(Nc3cnccn3)nc2)ccn1 (stereo not given)
Condition not met

Say whether its Percent Effect is strictly beneath 10%. Entry: CS(=O)(=O)NC[C@]12COC[C@H]1CN(C(=O)C1CC=CC1)C2
Condition met

Say whether its Percent Effect is strictly beneath 10%. Entry: O=C(CNc1cc2c(cc1Cl)OCCCO2)NCc1ccc(F)cc1
Condition met

Say whether its Percent Effect is strictly beneath 10%. Entry: CN(C)c1nccc(C2CN(c3ccccc3)CCO2)n1 (stereo not given)
Condition not met

Say whether its Percent Effect is strictly beneath 10%. Entry: Cc1nc(CN2CCCC23CCN(c2nc4ccccc4s2)CC3)co1
Condition not met

Say whether its Percent Effect is strictly beneath 10%. Entry: c1ccc2sc(N3CCC4(CCCN4Cc4ncc[nH]4)CC3)nc2c1
Condition not met

Say whether its Percent Effect is strictly beneath 10%. Entry: COC(=O)N1CCC(Nc2ccc(Cl)c(C#N)n2)C1 (stereo not given)
Condition not met

Say whether its Percent Effect is strictly beneath 10%. Entry: CNC(=O)COc1ccc(CNCc2c(C)nn(C)c2N(C)C)cc1
Condition met

Say whether its Percent Effect is strictly beneath 10%. Entry: CC(=O)N1CCCC(c2ccnc(N(C)C)n2)C1 (stereo not given)
Condition met

Say whether its Percent Effect is strictly beneath 10%. Entry: N#Cc1ncn(CCS(=O)(=O)c2ccc(Cl)cc2)n1
Condition met

Say whether its Percent Effect is strictly beneath 10%. Entry: CCCC1(CO)CCCN(c2ncnc3c2c(C)nn3C)C1 (stereo not given)
Condition met

Say whether its Percent Effect is strictly beneath 10%. Entry: CC(=O)N1CCCC(c2nccnc2Nc2nc(C)cc(C)n2)C1 (stereo not given)
Condition met

Say whether its Percent Effect is strictly beneath 10%. Entry: CCC(NC(=O)c1nn(C)cc1C(=O)O)c1ccc(C)cc1 (stereo not given)
Condition met

Say whether its Percent Effect is strictly beneath 10%. Entry: CC(NC(=O)NCCCn1cccn1)c1ccccn1 (stereo not given)
Condition met

Say whether its Percent Effect is strictly beneath 10%. Entry: N#Cc1ncn(CCC(=O)Nc2cccc(Cl)c2)n1
Condition not met

Say whether its Percent Effect is strictly beneath 10%. Entry: N#Cc1ncn(CCC(=O)Nc2ccccc2F)n1
Condition not met

Say whether its Percent Effect is strictly beneath 10%. Entry: CN(Cc1c(F)cccc1Cl)C(=O)Cn1cnc(C#N)n1
Condition not met

* * *

I'd appreciate it if you could supply Percent Effect values for the items below.
- Test system: Mycobacterium tuberculosis
- Protocol Details: Cornell - Phenotypic assay to identify agents that inhibit growth of Mycobacterium tuberculosis
- Assay type: functional
- Set-up: scale not given: direction of the effect not stated beside the values
- Condition Parameters: 10 mM as filed; unlikely as a test dose
The whole screen tested about 53,000 compounds, of which about 900 (1.7%) showed an effect of 50% or more. The entries come from a sample that favours strong results as a whole.
Only the number, expressed in %, is required.

Specify Percent Effect for O=C(c1sccc1-n1cnnn1)N1CCC(Cc2ccccc2)CC1 and stop.
28.81

Specify Percent Effect for CCn1cc2c(n1)CN(Cc1ccc(F)cc1)CC2COCC1CC1.O=C(O)C(F)(F)F (centres undefined) and stop.
11.94

Specify Percent Effect for CCc1cc(NC(=O)C(c2cccc(F)c2)N2CCOCC2)[nH]n1 (centres undefined) and stop.
-14.2

Specify Percent Effect for CN(C)c1ccc(C2CCN(c3cnccn3)CC2)nc1 and stop.
63.52

* * *

- Tested on: Mycobacterium tuberculosis
- Protocol Details: Cornell - Phenotypic assay to identify agents that inhibit growth of Mycobacterium tuberculosis
- Format: functional
- Set-up: scale not given: direction of the effect not stated beside the values
- Condition Parameters: 10 mM as filed; unlikely as a test dose
The whole screen tested about 53,000 compounds, of which about 900 (1.7%) showed an effect of 50% or more. What follows is part of a selection rich in strong results, with near analogues and random picks from the rest.
I'd appreciate it if you could supply Percent Effect values for the items below.
Only the number, expressed in %, is required.

State Percent Effect (Mycobacterium tuberculosis) of Cc1n[nH]c(C)c1CCC(=O)N[C@@H]1CCC[C@@H](Oc2ccccc2)[C@@H]1O .
-14.05

State Percent Effect (Mycobacterium tuberculosis) of CN1CCN(C(=O)c2nnc3ccc(Cl)cc3n2)CC1 .
64.7

State Percent Effect (Mycobacterium tuberculosis) of Cc1ccc2cc(C(=O)N3CCCN(C)CC3)ccc2n1 .
-5.453

State Percent Effect (Mycobacterium tuberculosis) of Cc1noc(C)c1C(=O)N[C@@H]1CCC[C@@H](Oc2ccccc2)[C@@H]1O .
50.47

State Percent Effect (Mycobacterium tuberculosis) of Cc1cc(C)nc(C2CCN(C(=O)c3cncnc3C)C2)n1 (stereo not given) .
-38.99

State Percent Effect (Mycobacterium tuberculosis) of CCCn1nccc1C(=O)Nc1ncc(C)s1 .
29.79

State Percent Effect (Mycobacterium tuberculosis) of Cc1c(C(=O)NC2CCCOC2)nnn1-c1ccccc1 (stereo not given) .
-4.644

State Percent Effect (Mycobacterium tuberculosis) of CNc1ncc(C(=O)N2CCOC(C(=O)N3CCCCCC3)C2)cn1 (stereo not given) .
-4.246

State Percent Effect (Mycobacterium tuberculosis) of CCn1nccc1C(=O)Nc1nc(C)c(C(C)=O)s1 .
37.96

State Percent Effect (Mycobacterium tuberculosis) of Cc1cccc(-c2noc(C)c2C(=O)NC2CCCOC2)c1.O=C(O)CC(O)(CC(=O)O)C(=O)O (stereo not given) .
20.12
